# Test system: Human papillomavirus type 1a protein E7 (residues 44-93)
# Assay Overview: HPV1a E7 fragment binders on microarrays, primary screen, biochemical, small-molecule microarray, residues 44-93, 635 nm fluorescence (AID 1108);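 also: E7 fragment applied at 1 µg/mL in TBST for 1 h at 4 C; score combines spot fluorescence with its signal to noise ratio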
# Experimental Parameters: small-molecule microarray binding, fluorescence 635 nm; higher = more signal
Property Label: composite z-score
Quick one: just the number, no unit, thanks!

CO[C@H]1COC(=O)[C@@H]2CCCN2C(=O)[C@@H](C)COC(=O)CC=C[C@@H]1C: -1.03
CC=CC1=C(CO)[C@H](O)[C@H]2O[C@H]2[C@H]1O: 0.598
CC(C)NC(=O)[C@@]1(c2ccc([N+](=O)[O-])cc2)CC(=O)N(CC23CC4CC(CC(C4)C2)C3)[C@@H]1c1ccc(CO)cc1I: 1.36
COc1ccc(COC(=O)NN=C2C[C@@H](O)[C@@H](O)[C@@H]3[C@@H]4C(=O)N(c5ccc(F)cc5F)C(=O)[C@@H]4CC[C@@H]23)cc1: -0.0514
C[C@@H](c1ccccc1)N1C(=O)[C@H]2[C@H]3[C@H](O)[C@H](O)CC(=NNC(=O)OCc4ccccc4)[C@H]3CC[C@H]2C1=O: -0.269

Q: Item C[C@@H](c1ccccc1)N1C(=O)[C@H]2[C@H]3[C@H](O)[C@H](O)CC(=NOC[C@@H](O)COCc4ccco4)[C@@H]3CC[C@H]2C1=O has what recorded composite z-score?
Ans: -0.856

Q: Now this one: COC(=O)[C@@H]1CC[C@H](C)[C@@H](c2ccc(C)cc2)N1C(=O)c1ccc(C=NOC(C)CN2CCCCc3nc(C)c(C)cc32)cc1 (some centres not stated)
Ans: -0.278

---

# Assay Overview: COS7 lysate on small-molecule microarray, probe aHis, 635 nm (AID 1123);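 also: z-score combines 667nm fluorescence intensity with signal-to-noise per printed compound spot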
# Experimental Parameters: COS7 cell lysate, fluorescence, higher = more signal
In this section, each of the compounds is paired with its reported composite z-score.
// response body must contain only the number

COc1ccc(-c2ccc3c(n2)CCCN3CC(O)CN2CCCc3nc(C)c(C)cc32)cc1 (centres undefined): 0.975
Cc1ccc(F)cc1S(=O)(=O)N[C@@H]1CCN(Cc2ccc(CC(C)C)cc2)C1: 0.193

Q: What value of composite z-score has been reported for the following compound? COC(=O)CC=C[C@@H](C)[C@@H](C=NO[C@@H](C)c1cc(-c2c(C)cc(C)cc2C)no1)OC
Ans: -0.556

Q: Another compound to look at: CC(C)(C)N1C(=O)[C@H]2[C@H]3[C@H](O)[C@H](O)CC(=NOCc4ccccc4)[C@@H]3CC[C@H]2C1=O
Ans: 0.384

---

Let's look at some compounds and their measured composite z-score.
# Assay Overview: COS7 lysate on small-molecule microarray, probe aHis, 635 nm (AID 1123);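 also: z-score combines 667nm fluorescence intensity with signal-to-noise per printed compound spot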
# Experimental Parameters: COS7 cell lysate, fluorescence, higher = more signal
Returns: the value as a bare number; no unit string appended.

CC(C)=CCCC(C)=CCON=C1[C@H]2CCn3c(=O)n(Cc4cc5c(cc4Cl)OCO5)c(=O)n3[C@H]2[C@H](O)[C@@H]2O[C@H]12: -0.605
Cc1cc2c(nc1C)CCCN2CC(C)ON=C1[C@H]2CCn3c(=O)n(-c4ccccc4)c(=O)n3[C@H]2[C@H](O)[C@@H]2O[C@H]12 (some centres not stated): 0.198
CC(CCN1CCc2nc(-c3ccccc3)c(-c3ccccc3)cc2C1)=NOC[C@@H](C)[C@H](OCc1ccccc1)C(C)C: 0.271
COC(=O)[C@@]1(Cc2ccc(F)cc2)[C@H]2c3cc(C(=O)N(C)C)n(Cc4ccc(OC)c(OC)c4)c3C[C@H]2CN1C(=O)c1ccccc1: 0.383
O=C1[C@H]2[C@H]3[C@H](O)[C@H](O)CC(=NO[C@@H]4O[C@H](CO)[C@@H](O)[C@H](O)[C@H]4O)[C@H]3CC[C@H]2C(=O)N1Cc1ccccc1: 0.904
C#CCCCON=C1C[C@@H](O)[C@@H](O)[C@@H]2[C@@H]3C(=O)N([C@@H](C)c4ccccc4)C(=O)[C@@H]3CC[C@H]12: -0.0684

Now examine the next entry.
Q: Form field: reported composite z-score of CC=CC1=C(CO)[C@H](O)[C@H]2O[C@H]2[C@H]1O
Ans: -0.188
